# Tested on: Es-2
# assay_protocol: Primary qHTS to identify gynecologic anti-cancer compounds using libraries of approved drugs and bioactive compounds (AID 1345084); further: nearly all actives have a fitted effect of over 55% in size
# recorded_conditions: Gynecologic cancer cell panel viability, ATPlite luminescence, 48 h; series mostly up to 57.5 µM
Records with an inconclusive call do not appear. Active and inactive are the calls of the source. The call rests on the fitted dose curve; in most records, active means well fitted cell-killing curve with a large enough effect; inconclusive means small, poorly fitted or top-dose-only effect, or effect the other way; inactive means flat fitted curve, though single readings scatter.
The reply should name one outcome from active, inactive

CN1CCC2=C(C1)c1ccccc1Cc1ccccc12; inactive
CNc1ccc2oc(C[C@H]3O[C@@]4(CC[C@H]3C)O[C@H](C(C)C(=O)c3ccc[nH]3)[C@H](C)C[C@H]4C)nc2c1C(=O)O (stereo not given in full); active
N#Cc1ccc(N2CCN(C(=O)COc3ccc4[nH]cc(CCN)c4c3)CC2)cc1; inactive

Next item in the queue.
In: State the result this test recorded for CN1C(=O)CN=C(c2ccccc2Cl)c2cc(Cl)ccc21 .
Out: inactive

----------
Can you tell me max response for the items I'm about to list?
# assay_protocol: qHTS Assay for Identifying Gametocytocidal Compounds (AID 743244);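 further: on the % scale 0 is the no-effect control and ±100 the full control effect; actives lower the fluorescent signal which means gametocytes are killed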
# recorded_conditions: P. falciparum 3D7 stage III-V gametocytes, alamarBlue, 72 h; hits give low values
Results filed as inconclusive are left out. Calls of active or inactive are those of the source. Calls follow the shape of the dose curve; as a rule, active = well fitted curve in the direction sought with a large enough effect; inconclusive = small, poorly fitted or top-dose-only effect, or another doubt; inactive = no such curve, though single readings can be large or run the other way.

Here are 4 molecules together with their reported answers.
COc1cc([C@@H]2c3cc4c(cc3[C@@H](O)[C@H]3COC(=O)[C@H]23)OCO4)cc(OC)c1O; 5.77% (inactive)
CCc1cc(OC)c(C[C@@H](C)N)cc1OC; 0.694% (inactive)
C[C@@H]1[C@H]2Cc3ccc(O)cc3[C@]1(C)CCN2C; -6.63% (inactive)
CC(C)=CCN1CC[C@]2(C)c3cc(O)ccc3C[C@H]1[C@H]2C; 2.13% (inactive)

Parameter requested: max response. Apply to each item below.
1. C[C@]12CCC(=O)C[C@@H]1CC[C@@H]1[C@@H]2CC[C@@]2(C)[C@H]1CC[C@]2(C)O
2. O=Cc1ccccc1
3. OCCN(CCO)CCO
4. O=[N+]([O-])c1ccc(O[C@@H]2O[C@H](CO)[C@@H](O)[C@H](O)[C@H]2F)c([N+](=O)[O-])c1
5. CCOc1cc(C=O)ccc1O
6. Cc1nnc2n1-c1sc(Br)cc1C(c1ccccc1Cl)=NC2

Out:
["-5.63% (inactive)", "-4.29% (inactive)", "5.27% (inactive)", "12.9% (inactive)", "-3.19% (inactive)", "6.14% (inactive)"]

I would be grateful if you could provide max response for each of the following entries.
1. CN1CC[C@@]23CCCC[C@@H]2[C@@H]1Cc1ccc(O)cc13
2. C1CN(P2(N3CC3)=NP(N3CC3)(N3CC3)=NP(N3CC3)(N3CC3)=N2)CCO1 (stereo unspecified)
3. CCC(=O)O[C@](Cc1ccccc1)(c1ccccc1)[C@H](C)CN(C)C
4. COC(=O)[C@H]1[C@@H](OC(=O)c2ccccc2)C[C@@H]2CC[C@H]1N2C
5. C[N+](C)(C)CC(=O)[O-]
6. C#C[C@]1(OC(=O)CCCCCC)CC[C@H]2[C@@H]3CCC4=CC(=O)CC[C@@H]4[C@H]3CC[C@@]21C
7. c1ccc2c(c1)Sc1ccccc1N2C[C@@H]1CN2CCC1CC2

Out:
["4.44% (inactive)", "-9.28% (inactive)", "0.382% (inactive)", "-15.4% (inactive)", "14.9% (inactive)", "-5.44% (inactive)", "-2.33% (inactive)"]

# return max response for each item in the list
1. Clc1ccc([C@@H]2C[C@H]3CC[C@@H]2N3)cn1
2. CNC(C)Cc1ccccc1 (stereo unspecified)
3. CN(C)CCO
4. CC(N)Cc1ccc2c(c1)OCO2 (stereo unspecified)
5. CN[C@@]1(c2ccccc2Cl)CCCCC1=O

Out:
1: 7.9% (inactive); 2: 7.96% (inactive); 3: 29.8% (inactive); 4: -8.54% (inactive); 5: 0.413% (inactive)

I'm hoping you can list max response for every molecule here, please.
1. O=C1CN=C(c2ccccc2)c2cc(Cl)ccc2N1
2. CCOC(=O)C1(c2ccccc2)CCCN(C)CC1 (stereo unspecified)
3. CC(=O)O[C@H]1C[C@H](O[C@H]2[C@@H](O)C[C@H](O[C@H]3[C@@H](O)C[C@H](OC4CC[C@@]5(C)C(CC[C@@H]6[C@@H]5CC[C@]5(C)[C@@H](C7=CC(=O)OC7)[C@@H](O)C[C@]65O)C4)O[C@@H]3C)O[C@@H]2C)O[C@H](C)[C@H]1O[C@@H]1O[C@H](CO)[C@@H](O)[C@H](O)[C@H]1O (stereo partly specified)
4. O=C(O)CCCO

Out:
38.4% (inactive)
9.62% (inactive)
7.87% (inactive)
2.34% (inactive)

Measured values drawn from PubChem BioAssay (NCATS) for this set.
